Entries and their measured inhibition follow.
- target.or.test.system: 17-beta-hydroxysteroid dehydrogenase type 3 (Rattus norvegicus)
- method.notes: Inhibition of 17beta-HSD3 in rat testes microsomes using [14C]-4-androstene-3,17-dione as substrate measured based on 4% of initial enzyme transformation at 1 uM after 2 hrs
- condition.info: Testis
property.label: inhibition

[[record]]
compound = "C[C@@H]1CN(S(=O)(=O)c2ccccc2C(F)(F)F)[C@@H](C)CN1C[C@@]1(O)CC[C@@]2(C)[C@@H](CC[C@@H]3[C@@H]2CC[C@]2(C)C(=O)CC[C@@H]32)C1"
measured = "96.4%"

[[record]]
compound = "COC(=O)[C@H](Cc1ccccc1)N1C[C@]2(CC[C@@]3(C)[C@@H](CC[C@@H]4[C@@H]3CC[C@]3(C)C(=O)CC[C@@H]43)C2)OC1=O"
measured = "72.1%"

[[record]]
compound = "C[C@]12CC[C@]3(CN[C@@H](Cc4ccccc4)C(=O)O3)C[C@@H]1CC[C@@H]1[C@@H]2CC[C@]2(C)C(=O)CC[C@@H]12"
measured = "75%"

[[record]]
compound = "COC(=O)[C@@H](CC(C)C)N1C[C@]2(CC[C@@]3(C)[C@@H](CC[C@@H]4[C@@H]3CC[C@]3(C)C(=O)CC[C@@H]43)C2)OC1=O"
measured = "76.9%"

[[record]]
compound = "C[C@]12CC[C@@]3(C[C@@H]1CC[C@@H]1[C@@H]2CC[C@]2(C)C(=O)CC[C@@H]12)CN(CC(CN1CCOCC1)OC(=O)C1CCCCC1)C(=O)O3 (some centres not stated)"
measured = "93.9%"

[[record]]
compound = "C[C@]12CC[C@@]3(C[C@@H]1CC[C@@H]1[C@@H]2CC[C@]2(C)C(=O)CC[C@@H]12)CN(Cc1ccccc1)CC(=O)O3"
measured = "90.9%"

[[record]]
compound = "C[C@]12CC[C@]3(CNCC(=O)O3)C[C@@H]1CC[C@@H]1[C@@H]2CC[C@]2(C)C(=O)CC[C@@H]12"
measured = "44.7%"


====

- target.or.test.system: UniProt:O54939
- Sequence (whole entry): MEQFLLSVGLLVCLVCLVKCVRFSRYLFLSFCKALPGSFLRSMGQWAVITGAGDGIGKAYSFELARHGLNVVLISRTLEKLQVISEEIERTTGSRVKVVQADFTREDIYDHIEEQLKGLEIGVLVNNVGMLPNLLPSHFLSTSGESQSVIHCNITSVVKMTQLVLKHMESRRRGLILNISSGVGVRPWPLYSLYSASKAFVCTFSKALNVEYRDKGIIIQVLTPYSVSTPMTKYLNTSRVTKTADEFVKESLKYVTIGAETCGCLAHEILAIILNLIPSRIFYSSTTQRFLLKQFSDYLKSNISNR
- method.notes: Inhibition of 17beta-HSD3 in rat testes microsomes using [14C]-4-androstene-3,17-dione as substrate measured based on 18% of initial enzyme transformation at 0.1 uM after 2 hrs
- condition.info: Testis
property.label: inhibition (%)

[[record]]
input_smiles = "C[C@]12CC[C@@]3(C[C@@H]1CC[C@@H]1[C@@H]2CC[C@]2(C)C(=O)CC[C@@H]12)CN(Cc1cn(Cc2ccccc2)nn1)CC(=O)O3"
target_or_test_system = "UniProt:O54939"
measured = 42.2

[[record]]
input_smiles = "C[C@]12CC[C@@]3(C[C@@H]1CC[C@@H]1[C@@H]2CC[C@]2(C)C(=O)CC[C@@H]12)CN(Cc1cccc2ccccc12)CC(=O)O3"
target_or_test_system = "UniProt:O54939"
measured = 79.1

[[record]]
input_smiles = "COC(=O)[C@@H](Cc1ccccc1)N1C[C@]2(CC[C@@]3(C)[C@@H](CC[C@@H]4[C@@H]3CC[C@]3(C)C(=O)CC[C@@H]43)C2)OC1=O"
target_or_test_system = "UniProt:O54939"
measured = 56.1

